Test: Drug exposure in triple transgenic C57BL6 alzheimer disease mouse plasma at 30 mg/kg, po measured after 5 hrs
Assay type: ADME, organism-based
endpoint label: concentration at 5 h (µM)
Give the value in µM but do not write µM after it.

Lookup: Can you look up the measured concentration at 5 h of CC1CN(c2ccncc2NC(=O)c2ccnn3cc(-c4ccccc4)nc23)CCO1 (racemic) for me?
Found: 3.8

---

# IC50 listing for each entry below
Test: Inhibition of tau 4R1N phosphorylation (unknown origin) at S396 residue transfected in human U2OS cells coexpressing GFP-tagged beta catenin incubated overnight by high content imaging assay
Give the value in nM but do not write nM after it.

| compound | IC50 / nM |
| --- | --- |
| CC1CN(c2ccncc2NC(=O)c2ccnn3cc(-c4ccccc4)nc23)CCO1 (racemic) | 58 |

Lookup: Can you look up the measured IC50 of `O=C(Nc1cnccc1-c1ccccc1)c1ccnn2cc(-c3ccccc3)nc12` for me?
Found: 910

Lookup: Can you look up the measured IC50 of `CC(C)Oc1ccncc1NC(=O)c1ccnn2cc(-c3ccccc3)nc12` for me?
Found: 83

Lookup: Can you look up the measured IC50 of CC1CN(c2ccncc2NC(=O)c2ccnn3cc(C4CC4)nc23)CCO1 (stereo not drawn) for me?
Found: 60

Lookup: Can you look up the measured IC50 of `O=C(Nc1cnccc1N1CCC(F)(F)CC1)c1ccnn2cc(-c3ccccc3)nc12` for me?
Found: 30

Lookup: Can you look up the measured IC50 of `O=C(Nc1cnccc1N1CCOCC1)c1ccnn2cc(-c3ccccc3)nc12` for me?
Found: 36

Lookup: Can you look up the measured IC50 of `O=C(Nc1cnccc1N1CCC(F)(F)CC1)c1ccnn2c(NCC3CC3)cnc12` for me?
Found: 41

Lookup: Can you look up the measured IC50 of `O=C(Nc1cnccc1N1CCC(F)(F)CC1)c1ccnn2cc(C3CC3)nc12` for me?
Found: 120

---

Molecular target: Cytoplasmic tyrosine-protein kinase BMX (Homo sapiens, UniProt P51813)
Sequence (P51813 whole entry): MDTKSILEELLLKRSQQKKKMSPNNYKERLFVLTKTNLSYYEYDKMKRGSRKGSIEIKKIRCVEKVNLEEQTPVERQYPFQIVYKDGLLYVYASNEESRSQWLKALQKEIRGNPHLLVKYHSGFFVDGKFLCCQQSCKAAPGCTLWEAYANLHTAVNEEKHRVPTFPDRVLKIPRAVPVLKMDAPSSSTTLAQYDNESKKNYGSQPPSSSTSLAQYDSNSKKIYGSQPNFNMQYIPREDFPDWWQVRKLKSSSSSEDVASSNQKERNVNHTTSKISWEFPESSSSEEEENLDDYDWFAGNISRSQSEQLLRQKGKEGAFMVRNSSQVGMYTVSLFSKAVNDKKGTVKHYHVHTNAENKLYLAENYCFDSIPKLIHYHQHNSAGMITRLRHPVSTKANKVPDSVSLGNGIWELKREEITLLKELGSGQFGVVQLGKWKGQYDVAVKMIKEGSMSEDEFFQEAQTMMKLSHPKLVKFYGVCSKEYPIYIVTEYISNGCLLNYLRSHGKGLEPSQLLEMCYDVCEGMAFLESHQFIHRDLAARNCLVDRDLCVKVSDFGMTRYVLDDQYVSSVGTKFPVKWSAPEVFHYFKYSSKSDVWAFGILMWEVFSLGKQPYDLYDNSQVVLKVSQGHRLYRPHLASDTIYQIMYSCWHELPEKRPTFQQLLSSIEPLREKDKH
pIC50: −log10 of the molar value.
endpoint label: pIC50

Lookup: Give recorded pIC50 with Cytoplasmic tyrosine-protein kinase BMX (Homo sapiens, UniProt P51813) for the following molecule: CC1CN(c2ccncc2NC(=O)c2ccnn3cc(-c4ccccc4)nc23)CCO1 (racemic)
Found: < 5.70

---

# Papp at 4 h listing for each entry below
Test: Permeability of compound at pH 7.4 incubated for 4 hrs by PAMPA assay
Format: ADME
Details: read-out: permeability
Give the value in ×10⁻⁶ cm/s but do not write ×10⁻⁶ cm/s after it.

Study these solved cases before continuing.
| molecule | uom | Papp at 4 h |
| --- | --- | --- |
| O=C(Nc1cnccc1-c1ccccc1)c1ccnn2cc(-c3ccccc3)nc12 | ×10⁻⁶ cm/s | 28.2 |
| CC1CN(c2ccncc2NC(=O)c2ccnn3cc(-c4ccccc4)nc23)CCO1 (racemic) | ×10⁻⁶ cm/s | 80.6 |
| O=C(Nc1cnccc1N1CCC(F)(F)CC1)c1ccnn2cc(-c3ccccc3)nc12 | ×10⁻⁶ cm/s | 64.2 |
| O=C(Nc1cnccc1N1CCOCC1)c1ccnn2cc(-c3ccccc3)nc12 | ×10⁻⁶ cm/s | 29.8 |

Lookup: Can you look up the measured Papp at 4 h of CC1CN(c2ccncc2NC(=O)c2ccnn3cc(C4CC4)nc23)CCO1 (stereo not given) for me?
Found: 107
